test system: NIH3T3; test: MTT cytotoxicity assay in NIH3T3 fibroblasts; assay type: cell-based, mouse; details: Table 1; MTT assay after 48 h treatment; tartrate
Structures can show the parent of a compound that is named as a salt.

COMPOUND	IC50
CCN(CC)CCO/N=C(/c1ccc(SC)cc1)c1cccc2ccccc12 [Compound 5k, tartrate]	> 50 µM

* * *

test system: MCF-7; assay: MTT assay in MCF-7 breast tumor cells; type: cell-based; settings: Homo sapiens, MCF7, Table 6, 48 h, 10 point dose response
pIC50: −log10 of the molar value. Structures can show the parent of a compound that is named as a salt.

COMPOUND	READOUT_RELATION	pIC50
CCN(CC)CCO/N=C(/c1ccc(OC)cc1)c1cccc2ccccc12 [Compound 6d, oxalate]	=	4.70
COc1ccc(/C(=N/OCCN2CCCCC2)c2cccc3ccccc23)cc1 [Compound 6a, oxalate]	=	4.74
CSc1ccc(/C(=N/O)c2cccc3ccccc23)cc1	=	4.74
CSc1ccc(/C(=N/OCCN2CCOCC2)c2cccc3ccccc23)cc1	<	4.30
COc1ccc(/C(=N/OCCN2CCCC2)c2cccc3ccccc23)cc1 [Compound 6b, oxalate]	=	4.60
CSc1ccc(/C(=N/OCCCN2CCC(C)CC2)c2cccc3ccccc23)cc1 [Compound 7c, oxalate]	=	5.19
CSc1ccc(/C(=N/OCCCCN2CCCCC2)c2cccc3ccccc23)cc1	=	5.10
CSc1ccc(/C(=N/OCCCN2CCOCC2)c2cccc3ccccc23)cc1	<	4.30
CSc1ccc(/C(=N/OCCN(C)C)c2cccc3ccccc23)cc1 [Compound 5c, oxalate]	=	4.85

* * *

test system: NIH3T3; test: MTT cytotoxicity assay in NIH3T3 fibroblasts; type: cell-based, mouse; conditions: Table 1; MTT assay after 48 h treatment
pIC50: −log10 of the molar value.

INPUT_SMILES	pIC50
CCN(CC)CCO/N=C(/c1ccc(SC)cc1)c1cccc2ccccc12	< 4.30

* * *

system: HL60; test: MTT cytotoxicity assay in HL-60 cells; assay type: cell-based; conditions: Homo sapiens, HL-60, 48 h, Table 1; MTT assay after 48 h treatment
pIC50: −log10 of the molar value. Where a name gives a salt, the structure may show the parent alone.

COMPOUND	pIC50
CCN(CCCCO/N=C(/c1ccc(SC)cc1)c1cccc2ccccc12)Cc1ccccc1 [Compound 8d]	< 4.30
CSc1ccc(/C(=N/OCCN2CCCC2)c2cccc3ccccc23)cc1 [Compound 5b, oxalate]	4.72
COc1ccc(/C(=N/O)c2cccc3ccccc23)cc1 [Compound 4b]	< 4.30
COc1ccc(/C(=N/OCCCN(C)C)c2cccc3ccccc23)cc1 [Compound 6i, oxalate]	< 4.30
CSc1ccc(/C(=N/OCCN(C(C)C)C(C)C)c2cccc3ccccc23)cc1 [Compound 5e]	4.85
CCN(CC)CCO/N=C(/c1ccc(OC)cc1)c1cccc2ccccc12 [Compound 6d, oxalate]	< 4.30
CSc1ccc(/C(=N/OCCN2CCCCCC2)c2cccc3ccccc23)cc1 [Compound 5h, oxalate]	< 4.30
COc1ccc(/C(=N/OCCN2CCCCC2)c2cccc3ccccc23)cc1 [Compound 6a, oxalate]	< 4.30
COc1ccc(/C(=N/OCCN2CCCC2)c2cccc3ccccc23)cc1 [Compound 6b, oxalate]	< 4.30
CSc1ccc(/C(=N/OCCCN(C)C)c2cccc3ccccc23)cc1 [Compound 5m, oxalate]	5.11
CSc1ccc(/C(=N/OCCCCN2CCCCC2)c2cccc3ccccc23)cc1 [Compound 8a]	4.80
CSc1ccc(/C(=N/OC(C)CN(C)C)c2cccc3ccccc23)cc1 (stereo not shown) [Compound 5g, oxalate]	< 4.30
CSc1ccc(/C(=N/OCCN2CCOCC2)c2cccc3ccccc23)cc1 [Compound 5f]	< 4.30
CSc1ccc(/C(=N/OCCCN2CCOCC2)c2cccc3ccccc23)cc1 [Compound 7b]	< 4.30
COc1ccc(/C(=N/OCCN(C(C)C)C(C)C)c2cccc3ccccc23)cc1 [Compound 6e, oxalate]	< 4.30
CCOC(=O)CO/N=C(/c1ccc(SC)cc1)c1cccc2ccccc12 [Compound 5p]	4.82
